# System: DU145 cells
# protocol-text: cells
# Assay type: cell-based
# condition-notes: Homo sapiens, DU-145, 120 h, read-out: IC50 in DU145
# Procedure: Studies were carried out on three prostate cancer cell lines: LNCaP, PC3, and DU145. […] There was not a significant difference in cytotoxicity of emetine between days 3 and 7. […] This increase is most likely due to the release of emetine from the dithiocarbamate salt over the time period. […] Various compounds prepared according to Example 6 were studied in DU145 and PC3 cells. The IC50 was determined at 3, 5, and 7 days.
recorded-metric: pIC50
Give only the number. pIC50 is defined as minus log10 of concentration in molar units.

> print(dat)
                                   molecule       target  test.value
1  CCC1CN2CCc3cc(OC)c(OC)cc3C2CC1CC1c2cc(OC)c(OC)cc2CCN1C(=O)CCC(=O)O (stereo not shown)  DU145 cells        6.19
2  CCC1CN2CCc3cc(OC)c(OC)cc3C2CC1CC1c2cc(OC)c(OC)cc2CCN1C(=O)/C=C(/CC(=O)O)C(=O)O (stereo not shown)  DU145 cells        5.70
3  CCC1CN2CCc3cc(OC)c(OC)cc3C2CC1CC1c2cc(OC)c(OC)cc2CCN1C(=O)/C=C/C(=O)O (stereo not shown)  DU145 cells        5.24

Now turn to the next molecule.
Documented pIC50 of CCC1CN2CCc3cc(OC)c(OC)cc3C2CC1CC1c2cc(OC)c(OC)cc2CCN1C(=O)/C(Cl)=C(\Cl)C(=O)O (stereo not shown) : 5.22

###

# protocol-text: pH-responsiveness by HPLC: emetine released in aqueous phosphate buffer
# Assay type: physicochemical
# condition-notes: pH 7.4 to 8.0, 24 hrs, 37° C.
recorded-metric: % Emetine at pH 7.4 to 8.0 over 72 hrs (%)
Answer in %, number only, no unit symbol.

The cases that follow already have their % Emetine at pH 7.4 to 8.0 over 72 hrs on record.
> print(dat)
                                   molecule  reading.unit  test.value
1  CCC1CN2CCc3cc(OC)c(OC)cc3C2CC1CC1c2cc(OC)c(OC)cc2CCN1C(=O)/C=C\C(=O)O (centres unmarked) [Compound 2]             %         0.0
2  CCC1CN2CCc3cc(OC)c(OC)cc3C2CC1CC1c2cc(OC)c(OC)cc2CCN1C(=O)/C=C(/CC(=O)O)C(=O)O (centres unmarked)             %         0.0
3  CCC1CN2CCc3cc(OC)c(OC)cc3C2CC1CC1c2cc(OC)c(OC)cc2CCN1C(=O)/C=C(/C)C(=O)O (centres unmarked) [Compound 3]             %         0.0
4  CCC1CN2CCc3cc(OC)c(OC)cc3C2CC1CC1c2cc(OC)c(OC)cc2CCN1C(=O)/C=C\C(=O)O (centres unmarked) [Compound 4]             %         0.0

// % Emetine at pH 7.4 to 8.0 over 72 hrs lookup, molecule = CCC1CN2CCc3cc(OC)c(OC)cc3C2CC1CC1c2cc(OC)c(OC)cc2CCN1C(=O)/C=C(/C)C(=O)O (centres unmarked) [Compound 5] , result: 0.0

###

# protocol-text: pH-responsiveness by HPLC: emetine released in aqueous phosphate buffer
# Type: physicochemical
# condition-notes: pH 5.5, 48 hrs, 37° C.
Mark yes for % Emetine at pH 5.5 under 50%, no if at or over.

As a guide, the following entries are already answered.
> print(dat)
                                   molecule  class
1  CCC1CN2CCc3cc(OC)c(OC)cc3C2CC1CC1c2cc(OC)c(OC)cc2CCN1C(=O)/C=C\C(=O)O (centres unmarked) [Compound 4]    yes
2  CCC1CN2CCc3cc(OC)c(OC)cc3C2CC1CC1c2cc(OC)c(OC)cc2CCN1C(=O)/C=C(/C)C(=O)O (centres unmarked) [Compound 5]     no
3  CCC1CN2CCc3cc(OC)c(OC)cc3C2CC1CC1c2cc(OC)c(OC)cc2CCN1C(=O)/C=C(/C)C(=O)O (centres unmarked) [Compound 3]     no
4  CCC1CN2CCc3cc(OC)c(OC)cc3C2CC1CC1c2cc(OC)c(OC)cc2CCN1C(=O)/C=C\C(=O)O (centres unmarked) [Compound 2]     no

Note: attention shifts to another entry.
Query string: hey, is % Emetine at pH 5.5 for CCC1CN2CCc3cc(OC)c(OC)cc3C2CC1CC1c2cc(OC)c(OC)cc2CCN1C(=O)/C=C(/CC(=O)O)C(=O)O (centres unmarked) lower than 50% or not?
Result string: yes

###

# Test system: PC3 cells
# protocol-text: cells
# Type: cell-based
# condition-notes: Homo sapiens, PC-3, 120 h, read-out: IC50 in PC3
recorded-metric: pIC50
Here pIC50 is given on a logarithmic scale as minus log10 of the concentration in mol/L.

Answered examples (3):
> print(dat)
                                   compound     target  test.value
1  CCC1CN2CCc3cc(OC)c(OC)cc3C2CC1CC1c2cc(OC)c(OC)cc2CCN1C(=O)CCC(=O)O (stereo not shown)  PC3 cells        5.74
2  CCC1CN2CCc3cc(OC)c(OC)cc3C2CC1CC1c2cc(OC)c(OC)cc2CCN1C(=O)/C=C(/CC(=O)O)C(=O)O (stereo not shown)  PC3 cells        5.62
3  CCC1CN2CCc3cc(OC)c(OC)cc3C2CC1CC1c2cc(OC)c(OC)cc2CCN1C(=O)/C=C/C(=O)O (stereo not shown)  PC3 cells        5.15

From here, focus on the item given below.
Record CCC1CN2CCc3cc(OC)c(OC)cc3C2CC1CC1c2cc(OC)c(OC)cc2CCN1C(=O)/C(Cl)=C(\Cl)C(=O)O (stereo not shown) has PC3 cells pIC50 equal to 5.22

###

# Tested on: LNCaP cells
# protocol-text: Cytotoxicity in LNCaP prostate cancer cell line
# Type: cell-based
# condition-notes: Homo sapiens, 168 h, read-out: IC50 after 7 days
recorded-metric: IC50 (nM)
I only need the number, in nM, no unit after it.

These solved cases illustrate the format of a correct answer.
> print(dat)
                                   molecule  recorded.metric  reading.unit  test.value
1  CCC1CN2CCc3cc(OC)c(OC)cc3C2CC1CC1c2cc(OC)c(OC)cc2CCN1C(=O)NCc1ccccc1 (stereo not shown) [Compound 13e]             IC50            nM        2120
2  CCC1CN2CCc3cc(OC)c(OC)cc3C2CC1CC1c2cc(OC)c(OC)cc2CCN1C(=O)OCc1ccccc1 (stereo not shown) [Compound 5b]             IC50            nM        2160
3  CCC1CN2CCc3cc(OC)c(OC)cc3C2CC1CC1c2cc(OC)c(OC)cc2CCN1S(C)(=O)=O (stereo not shown) [Compound 8b]             IC50            nM        2100
4  CCOC(=O)c1ccc(NC(=O)CSC(=S)N2CCc3cc(OC)c(OC)cc3C2CC2CC3c4cc(OC)c(OC)cc4CCN3CC2CC)cc1 (stereo not shown) [Compound 4c]             IC50            nM        1660
5  CCC1CN2CCc3cc(OC)c(OC)cc3C2CC1CC1c2cc(OC)c(OC)cc2CCN1S(=O)(=O)c1ccccc1 (stereo not shown) [Compound 8e]             IC50            nM        2260

// recorded IC50 for CCC1CN2CCc3cc(OC)c(OC)cc3C2CC1CC1c2cc(OC)c(OC)cc2CCN1C(=S)Nc1ccc(Br)cc1 (stereo not shown) [Compound 11d] : 339

// IC50 value for CCC1CN2CCc3cc(OC)c(OC)cc3C2CC1CC1c2cc(OC)c(OC)cc2CCN1C(=S)SCC(=O)Nc1ccc(Br)cc1 (stereo not shown) [Compound 4g] : 1700

Recorded IC50 (molecule CCCCCCSC(=S)N1CCc2cc(OC)c(OC)cc2C1CC1CC2c3cc(OC)c(OC)cc3CCN2CC1CC (stereo not shown) [Compound 4h] ): 1610

Kindly note the recorded IC50 for CCC1CN2CCc3cc(OC)c(OC)cc3C2CC1CC1c2cc(OC)c(OC)cc2CCN1C(=S)SCCCCC(=O)OC (stereo not shown) [Compound 4l] , which is 2310

The measured IC50 associated with CCCCCCCCNC(=S)N1CCc2cc(OC)c(OC)cc2C1CC1CC2c3cc(OC)c(OC)cc3CCN2CC1CC (stereo not shown) [Compound 11m] reads 1010
